# Test Target: Farnesyl diphosphate synthase (Trypanosoma cruzi)
# Sequence (Q8WS26 whole entry): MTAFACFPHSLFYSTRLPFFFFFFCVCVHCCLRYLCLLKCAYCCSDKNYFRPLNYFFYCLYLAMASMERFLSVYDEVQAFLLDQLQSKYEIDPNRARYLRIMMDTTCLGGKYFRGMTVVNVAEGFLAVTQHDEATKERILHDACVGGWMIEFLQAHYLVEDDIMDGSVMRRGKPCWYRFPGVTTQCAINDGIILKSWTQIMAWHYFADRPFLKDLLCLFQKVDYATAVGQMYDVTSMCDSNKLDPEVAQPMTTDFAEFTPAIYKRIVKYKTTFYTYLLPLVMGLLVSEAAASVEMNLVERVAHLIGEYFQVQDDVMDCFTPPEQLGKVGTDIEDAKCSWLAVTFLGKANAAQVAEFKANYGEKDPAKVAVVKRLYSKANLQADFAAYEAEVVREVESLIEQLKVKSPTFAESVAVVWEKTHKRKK
Outcome Measure: IC50 (nM)
Provide the reading as a plain figure in nM.

Here CCCCNCC(F)(P(=O)(O)O)P(=O)(O)O was tested on Farnesyl diphosphate synthase (Trypanosoma cruzi), and its IC50 came to 173

Known value: Farnesyl diphosphate synthase (Trypanosoma cruzi) IC50 of the molecule CCCCCCCCNCC(F)(P(=O)(O)O)P(=O)(O)O equals 85

Test item CCCCCCCCCNCC(F)(P(=O)(O)O)P(=O)(O)O ; Farnesyl diphosphate synthase (Trypanosoma cruzi); reported IC50 was 34
